Overview of reported pEC50 across a group of molecules:
ASSAY TARGET: airway epithelial sodium currents (sodium channel) (UniProt A0A8I3MKE6+A0A8I3Q679+Q95165)
ASSAY PROTOCOL: Sodium channel blocking activity: inhibition of short circuit current (ISC) in airway epithelial monolayers mounted in Ussing chambers
Assay type: cell-based, human, dog, sheep or rodent
ASSAY CONTEXT: Selected Alaphatic Pyrazinoylguanidines (Formula II); mean ± spread
pEC50: −log10 of the molar value. Structures can show the parent of a compound that is named as a salt.

{"MOLECULE": "N=C(NCCCCCCCCCCCCN)NC(=O)c1nc(Cl)c(N)nc1N [compound 23609, dihydrochloride]", "pEC50": 7.89}
{"MOLECULE": "N=C(NCCCCCCCCN)NC(=O)c1nc(Cl)c(N)nc1N [compound 19336, dihydrochloride]", "pEC50": 7.12}
{"MOLECULE": "N=C(N)NCCCCCCCCCNC(=N)NC(=O)c1nc(Cl)c(N)nc1N [compound 19006, dihydrochloride]", "pEC50": 7.22}
{"MOLECULE": "N=C(NCCCCCCCCCCCN)NC(=O)c1nc(Cl)c(N)nc1N [compound 23682, dihydrochloride]", "pEC50": 7.92}
{"MOLECULE": "N=C(NCCCCCCN)NC(=O)c1nc(Cl)c(N)nc1N [compound 18706, dihydrochloride]", "pEC50": 6.60}
{"MOLECULE": "N=C(N)NCCCCCCCNC(=N)NC(=O)c1nc(Cl)c(N)nc1N [compound 19155, dihydrochloride]", "pEC50": 7.09}
{"MOLECULE": "N=C(N)NCCCCCCCCCCCNC(=N)NC(=O)c1nc(Cl)c(N)nc1N [compound 23991, dihydrochloride]", "pEC50": 7.19}
{"MOLECULE": "N=C(N)NCCCCCCCCCCCCNC(=N)NC(=O)c1nc(Cl)c(N)nc1N [compound 23683, dihydrochloride]", "pEC50": 7.39}
{"MOLECULE": "N=C(NCCCCCCCCCCN)NC(=O)c1nc(Cl)c(N)nc1N [compound 19487, dihydrochloride]", "pEC50": 7.60}
{"MOLECULE": "N=C(N)NCCCCCCCCNC(=N)NC(=O)c1nc(Cl)c(N)nc1N [compound 19604, dihydrochloride]", "pEC50": 7.60}
{"MOLECULE": "N=C(N)NCCCCCCCCCCNC(=N)NC(=O)c1nc(Cl)c(N)nc1N [compound 23608, dihydrochloride]", "pEC50": 7.77}

Values were extracted from patent US20050090505A1.
